# assay_summary: soluble on expression in E. coli; label from the status in PepcDB or PDB records

construct_sequence | soluble on expression in E. coli
MSITLITAAPGAGKTIFAVWNIIKPAVEADRVVYTAGIPELKLPAISLSYSQVKRWADRELVEVENPSGIPIPDDEKPSRLQNITEGALIVIDEVQYLWPASGSREPGEDIKYLTKHRHHGLEFVLITQAPQLIHKNVLAVVDKHIHMLSDWHGRKRYEWPEYCATVRATSSKLKAVSQRYELPKEAYGLYRSASMHI | not soluble
MTEYGGGEVYLLDLDSVVDGSALRMISSGGLRGRVLIHSALVDYLYSEAKRGRSAGYAGLAELSRLMDAGVGDVEIVVVEDDARVQPRDEGELKSVLRRYALRVGATLVTSDPVQARAARALGVSVLFTGRSRTGRIRIEE | not soluble
MHTMHIPSGDVLIPKPKLITEETDPLHIIKTRQKTHGRPVTIAGPMVRYSKLPFRQLCREYNVDIVYSPMILAREYVRNEHARISDLSTNNEDTPLIVQVGVNNVADLLKFVEMVAPYCDGIGINCGCPIKEQIREGIGCALIYNSDLLCSMVHAVKDKYGDKLRIETKIRIHEALDETVELCRKLCDAGVDWITIHGRTRRTRSSQPANLDAIKYIIENISDKNVPVIANGDCFKLSDLERITKYTGAHGVMAVRGLLSNPALFAGYTTCPWGCIEKFCYWALEFGGLPFQLAQHHLYCMLENMELKKSLLKKMMNLKNYISLIDWFNKTFEFKRYGEDGFGMGVEIPYKANSCVQRSASVVERQE | soluble
MVGFLKHLVPKRFRKKELVIPVVRMQGAIMAGGNQFRPALNLASYAPLLEKAFAVKDAPAVAISLNSPGGSPVQARMIYNRIRQLAEEKDKKVLIFVEDVAASGGYMIALAGDEIIADPTSIVGSIGVVSGGFGFPEMLRKIGVERRVYTAGENKVILDPFQPEKEGDIDYLKSLQVEIHNVFIDMVKMRRGSKLKGDDALFSGLFWTGMRGLDLGLIDGLGDMREVLRRRYGTKVKLQLISGGRSLFGKKVPGVNMALGLNAERLAAGAVSGLAEVAEEKALWSRFGLLEHHHHHH | soluble
MAHHHHHHMKVSFTLFFIIYIILNCDVLKCEVESSDSTSFLNLISGQSSSNSDDTVSSSDSRGVVASVSGTVDSDVSRTDSTGNVNSKNSELSETRQNSVEQNNNSNSSDNSIKIKSAFLKENVGVKITGPCDEGFGLVMVPHIIINVDTRNTDIQLGKKSSEINYGIKLRKKGKDEYEEKVGIDLLKNVCETGKNFKFVAYIKGDELIIKWKVIEEGNIPIDIKKFKIKRMSPPITSIQVFSSMSDEKSFVLENKNYVVTNNMPEKCEALATNCFLSGNIDIEKCYQCSLLVENDSKSDVCYNFISRENKEKLNEERFKVKGSTEYEESVESELKGAIDLLISSFYKSDGENGENVLISFEDLNSTLEDDIINFCSLLKLVDLSG | not soluble

====

# assay_summary: soluble on expression in E. coli; label from the status in PepcDB or PDB records
assay_readout: soluble on expression in E. coli

construct_sequence | assay_readout | result_value
SGKTSQRKQCDCENPSKPCLSTSIPLRMSSYTFKRPVTKITSHLGNEVRYYQWEETFKKPEQACWQKRLQGLQAYSSAGELLSTSDLAKTLKDLTSTDTVASASDTQAASIDITSVPTLESSSHLANMIPEAGPQILCKEFLVTEQDIINQERKVKIARERLAVALIAHKLASEMETVRGSRKANL | soluble on expression in E. coli | soluble
GMDDETLRLQFGHLIRILPTLLEFEKKGYEPSLAEIVKASGVSEKTFFMGLKDRLIRAGLVKEETLSYRVKTLKLTEKGRRLAECLEKCRDVLGS | soluble on expression in E. coli | soluble

====

# assay_summary: soluble on expression in E. coli; label from the status in PepcDB or PDB records
assay_readout: soluble on expression in E. coli

construct_sequence | result_value
MGSDKIHHHHHHMTFLFFQPSSNIIKPYALMDLDDTLFQTQRKIDAWELPTTEPENLVCATVNKQGEPLSFMSQRQAAFFNWLLASTELIAVTARDRLEIKRVKLLFNSWQVLTHGAVILTSDGEPLSTWQQHMYNALIPLQDKINQLTEWVNSYSKESDRTHNDLKLTPHTDTFIDSELTIYLAIKHTQKDHQALAELATQLPTLIPDFDAHFYVHVNANNLAILPHAVHKRHAVQFLLEQHLDHQRPSFGFGDSLADLPFLQLLDWYGMPNHGQLHTQQ | not soluble
MQKELFRQSPDSNKLILFFNGWAMTREAVSHLAIPPEYDLLHVWDYRTDTLHFDWSPYREICLSAWSMGVWAAERLSREGRLPSVVSAVAICGTGYPMDDTMGIPLDIFRGTLDGLTEENRLRFNRRMCGGKSLKHLLEALAARETDEIKAELGRVYEEEEKRLKSDDPHPVAPLSWDKALIGAKDRIIPAKNQQAFWQMRGCRNIETVAEGDHYLFNRFTEWEQLWS | not soluble
MCELLGMSANVPTDICFSFTGLVQRGGGTGPHKDGWGITFYEGKGCRTFKDPQPSFNSPIAKLVQDYPIKSCSVVAHIRQANRGEVALENTHPFTRELWGRNWTYAHNGQLTGYKSLETGNFRPVGETDSEKAFCWLLHKLTQRYPRTPGNMAAVFKYIASLADELRAKGVFNMLLSDGRYVMAYCSTNLHWITRRAPFGVATLLDQDVEIDFSSQTTPNDVVTVIATQPLTGNETWQKIMPGEWRLFCLGERVV | not soluble
DVTGLATGFRDLDKITTGLHPDQLIILAARPAVGKTAFVLNIAQNVGTKMNRPVAIFSLEMGAESLVDRMLASEGMVDAHNLRTGQLTEQDWQNITLAQGTLADAPIYIDDTPGIKVTEIRARARKLDQELEKGLGLIVIDYLQLITGTRPENRQQEVSDISRQLKILAKELGVPVIALSQLSRGVEQRQDKRPVLSDI | not soluble
MKRFLLLLCALLSFSALAAPKADLWPYWQQSNGVNQTSISHLEWQQLLDSYLVTRGDNTLFRYNQVSFADKTKLKQYIQRLASLNPLQYRQAEQYAYWVNLYNALTVHLILDNYPITSITKLGGLFSFGPWDQGVIIINGKSLTLNDIEHRILRPIWQDPRTHYAVNCASLGCPNLQTQAFTAENTQTLLESAAKTFINSKKGVSIEGDTAKISSIYEWFAVDFGGEKEVFNHIRKYAPQYNHFSGRVKYDYDWSLNQADLEHHHHHH | not soluble
MPSEPGKNMIQHAGLGYRRDLAEDFLSLSENSPICFIEAAPENWLKMGGWARKQFDRVAERLPLALHGLSMSLGGQAPLDTDLIDGIKEMMRRYDCTFFSDHLSYCHDGGHLYDLLPLPFTEEMVHHTARRIREVQDRLGCRIAVENTSYYLHSPLAEMNEVEFLNAVAREADCGIHLDVNNIYVNAVNHGLLSPEAFLENVDAERVCYIHIAGHDVETPELLIDTHGAAVLPTVWDLLELAYAKLPTIPPTLLERDFNFPPFSELEAEVAKIADYQTRAGKECRRAA | not soluble
MLRCADGALYTGVSTDVARRYRQHQAGKGARYTRLNPPLAVELVIEYPDRSAALRAEHAFKRLSAAAKRDFLRAHGDAGPSSLEHHHHHH | not soluble
SHMSLTPDQIVAALQERGWQAEIVTEFSLLNEMVDVDPQGILKCVDGRGSDNTQFCGPKMPGGIYAIAHNRGVTTLEGLKQITKEVASKGHVPSVHGDHSSDMLGCGFFKLWVTGRFDDMGYPRPQFDADQGAKAVENAGGVIEMHHGSHAEKVVYINLVENKTLEPDEDDQRFIVDGWAAGKFGLDVPKFLIAAAATVEMLGGPKKAKIVIP | soluble
MGSDKIHHHHHHMGNYLVLQSDFGLSDGAVSAMYGVAYTVSDDIRVENLTHDIPPYDIWVASYRLYQTVKYWPKGTVFVSVVDPGVGSDRRSIACLTYSGHYIITPDNGSLSHIKHYEGIKKVIEIDEVKSRLPHSEESHTFHGRDVYAYNGARLAANKIAFERLGQAINVDSIEALEIREATKNEDSVTGSIDILDIRFGSLWTNIPLAFLKSLEIVHGNNLVVTIYHQDKKVYQNIIKFARSFADVNVGEPLVYVNSLVNIGVAVNQDSFSDLYHIGTGNDWTIHLSKAPSI | not soluble
KPAPSAEHSYAEGEGLVKVFDNAPAEFTIFAVDTKGVARTDGGDPFEVAINGPDGLVVDAKVTDNNDGTYGVVYDAPVEGNYNVNVTLRGNPIKNMPIDVKCIEGANGEDSSFGSFTFTVAAKNKKGEVKTYGGDKFEVSITGPAEEITLDAIDNQDGTYTAAYSLVGNGRFSTGVKLNGKHIEGSPFKQVLGNPGKKNPEVKSFTTTRTAN | soluble
MSLTTPTMIAAVVEEANGPFVLRKLARPQPAPGQVLVQIEASGTNPLDAKIRAGEAPHAQQPLPAILGMDLAGTVVAVGPEVDSFRVGDAVFGLTGGVGGLQGTHAQFAAVDARLLASKPAALTMRQASVLPLVFITAWEGLVDRAQVQDGQTVLIQGGGGGVGHVAIQIALARGARVFATARGSDLEYVRDLGATPIDASREPEDYAAEHTAGQGFDLVYDTLGGPVLDASFSAVKRFGHVVSCLGWGTHKLAPLSFKQATYSGVFTLHTLLANEGLAHFGEMLREADALVQTGKLAPRLDPRTFSIAEIGSAYDAVLGRNDVPRQRGKIAITVEPQFNLHEQREGHHHHHH | soluble
DIIITAGGKNITPAEIESRLKFSHYISDAVIVGDKRKFLTCLIMIDQENVEKFAQDRKVPFSNFASLCAAKEVRELIAAEVAQVNKEFARVEQIKDFRLIDVLLTAEDDELTATMKLKRSFVEKKHAHLIEDMYK | soluble

src = the DeepSol protein solubility set
